B1: EHEE_rd4_0726 (parent)
chain: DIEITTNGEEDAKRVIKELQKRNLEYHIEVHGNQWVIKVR

Variants of: B1
Assay: folding stability dG (cDNA display proteolysis); higher = more stable
Conditions: PBS, room temperature
Entries and their folding stability dG
Please give a number only; it is taken to be in kcal/mol.

[
  {
    "mutant.name": "K21N",
    "measured.result": 2.21
  },
  {
    "mutant.name": "E3G",
    "measured.result": 1.25
  },
  {
    "mutant.name": "H31W",
    "measured.result": 2.08
  }
]

Lookup result for `I16R` ; measured folding stability dG: 0.31

What the record says about `I4A` : folding stability dG is 0.165

folding stability dG reported for this variant `E9F` : 2.52

Briefly, folding stability dG measured for `I28Q` : 0.128

`E10D` has a reported folding stability dG of 2.25

Value of measured folding stability dG for the entry `N7W` : 3.1

Recorded folding stability dG (variant `K13Y` ): 2.73

Note to self: folding stability dG recorded for `T5Q` was 2

Value of measured folding stability dG for the entry `V15C` : 2.29

Short answer for `K38D` : folding stability dG was -0.365

Record `V15I` . Reported folding stability dG: 2.91

The recorded folding stability dG for entry `H27F` equals 2.57

Entry `V39S` — recorded folding stability dG = 0.617

// field: folding stability dG; key: `E25G` ; value = 2.04
